system: human vitamin D binding protein (DBP) (Homo sapiens)
Construct: pooled Gc allotypes not specified
Sequence (P02774 17-474): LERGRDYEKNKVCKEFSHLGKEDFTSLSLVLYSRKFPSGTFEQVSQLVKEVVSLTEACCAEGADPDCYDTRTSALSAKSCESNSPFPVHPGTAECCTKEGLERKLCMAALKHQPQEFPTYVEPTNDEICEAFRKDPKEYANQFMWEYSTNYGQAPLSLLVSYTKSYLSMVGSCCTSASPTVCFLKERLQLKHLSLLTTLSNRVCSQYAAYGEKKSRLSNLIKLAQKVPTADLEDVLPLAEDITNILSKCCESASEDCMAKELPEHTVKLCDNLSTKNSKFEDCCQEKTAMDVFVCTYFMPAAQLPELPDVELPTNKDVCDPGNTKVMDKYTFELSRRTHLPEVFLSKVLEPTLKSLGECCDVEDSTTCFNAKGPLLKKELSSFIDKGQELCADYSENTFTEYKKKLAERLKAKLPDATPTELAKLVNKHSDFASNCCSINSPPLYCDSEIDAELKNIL
measurement notes: Affinity to vitamin D binding protein (competition with 3H-1α,25-DHCC)
condition summary: DBP purified from total human serum; 10^-11 to 2.5×10^-6 M; compared to 1α,25-DHCC; FIG. 1
Method: Affinity to vitamin D binding protein. Vitamin D binding protein (DBP) is the specific carrier for vitamin D and its metabolites in blood. […] In the assay, DBP is incubated with ^3 H-1α,25-DHCC and 1α,25-DHCC or with several vitamin D compounds according to the invention. To this purpose, the vitamin compounds are dissolved in ethanol in concentrations ranging from 10^-11 to 2.5×10^-6 M. The percentage bound/unbound ^3 H-1α,25-DHCC is then calculated. […]
measured parameter: binding to the DBP

| compound | system | obs value |
| --- | --- | --- |
| C=C1/C(=C\C=C2/CCC[C@@]3(C)[C@H]2CC[C@@]32C[C@@H]2CCCC(C)(C)O)C[C@@H](O)C[C@@H]1O [compound 32] | human vitamin D binding protein (DBP) (Homo sapiens) | rather weakly |
| C=C1/C(=C\C=C2/CCC[C@]3(C)/C(=C/CCCC(C)(C)O)CC[C@@H]23)C[C@@H](O)C[C@@H]1O [compound 28] | human vitamin D binding protein (DBP) (Homo sapiens) | rather weakly |
| C=C1/C(=C\C=C2/CCC[C@]3(C)/C(=C\CCCC(C)(C)O)CC[C@@H]23)C[C@@H](O)C[C@@H]1O [compound 21] | human vitamin D binding protein (DBP) (Homo sapiens) | rather weakly |
| C=C1/C(=C\C=C2/CCC[C@@]3(C)[C@H]2CC[C@@]32C[C@H]2CCCC(C)(C)O)C[C@@H](O)C[C@@H]1O [compound 36] | human vitamin D binding protein (DBP) (Homo sapiens) | rather weakly |

---

system: calf thymus intracellular vitamin D receptor (VDR) (Bos taurus, UniProt Q28037)
Sequence (Q28037 whole entry): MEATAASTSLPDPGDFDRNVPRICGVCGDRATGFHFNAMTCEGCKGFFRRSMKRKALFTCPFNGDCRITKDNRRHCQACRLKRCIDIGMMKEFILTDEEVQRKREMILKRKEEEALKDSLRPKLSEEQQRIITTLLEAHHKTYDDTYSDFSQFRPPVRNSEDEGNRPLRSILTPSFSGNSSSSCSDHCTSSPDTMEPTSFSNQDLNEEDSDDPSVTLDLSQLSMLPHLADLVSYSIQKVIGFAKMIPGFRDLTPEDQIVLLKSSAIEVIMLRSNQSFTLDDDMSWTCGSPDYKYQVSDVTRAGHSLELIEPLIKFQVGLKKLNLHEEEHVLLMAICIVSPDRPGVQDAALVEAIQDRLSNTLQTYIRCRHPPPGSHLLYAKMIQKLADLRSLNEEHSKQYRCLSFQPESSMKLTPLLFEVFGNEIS
measurement notes: Affinity to intracellular vitamin D receptor (displacement of 3H-1α,25-DHCC)
Type: binding
condition summary: 10^-13 to 10^-7 M, compared with 1α,25-dihydroxycholecalciferol
measured parameter: VDR-affinity

| substance smiles | measured parameter | obs value |
| --- | --- | --- |
| C=C1/C(=C\C=C2/CCC[C@]3(C)/C(=C\CCCC(C)(C)O)CC[C@@H]23)C[C@@H](O)C[C@@H]1O | VDR-affinity | moderate |
| C=C1/C(=C\C=C2/CCC[C@]3(C)/C(=C/CCCC(C)(C)O)CC[C@@H]23)C[C@@H](O)C[C@@H]1O | VDR-affinity | moderate |
| C=C1/C(=C\C=C2/CCC[C@@]3(C)[C@H]2CC[C@@]32C[C@@H]2CCCC(C)(C)O)C[C@@H](O)C[C@@H]1O | VDR-affinity | high |
| C=C1/C(=C\C=C2/CCC[C@@]3(C)[C@H]2CC[C@@]32C[C@H]2CCCC(C)(C)O)C[C@@H](O)C[C@@H]1O | VDR-affinity | weak |
